target: human apurinic/apyrimidinic endonuclease 1 (APE1) (Homo sapiens); construct: His; made in house; experiment: APE1 inhibition assay; assay type: biochemical
Sequence (P27695 whole entry): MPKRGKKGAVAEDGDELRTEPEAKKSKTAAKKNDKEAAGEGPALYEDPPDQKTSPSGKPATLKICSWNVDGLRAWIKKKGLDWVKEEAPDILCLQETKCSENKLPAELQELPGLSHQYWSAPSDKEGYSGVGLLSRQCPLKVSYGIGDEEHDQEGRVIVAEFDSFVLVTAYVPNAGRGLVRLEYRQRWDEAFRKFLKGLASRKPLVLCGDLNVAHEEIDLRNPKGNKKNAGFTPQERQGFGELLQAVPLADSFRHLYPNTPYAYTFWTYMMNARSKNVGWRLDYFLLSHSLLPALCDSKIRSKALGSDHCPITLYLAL
REPORTED_ENDPOINT: IC50

Note IC50 for the molecule shown: O=C(Nc1cccc([N+](=O)[O-])c1)C(=S)NN1C(=O)C(=Cc2ccc([N+](=O)[O-])o2)SC1=S
> 100 µM

----------
Each entry below lists one item and its recorded IC50 value.
Molecular target: HIV-1 IN (Human immunodeficiency virus type 1 group M subtype B)
Construct: pre-incubated with purified recombinant IN (at a final concentration of 200 nM); made in house
Experiment: In vitro IN inhibition assay (3’-processing and strand transfer)
Format: biochemical
Details: Mn2+ cofactor (7.5 mM MnCl2); read-out: Inhibition of IN catalytic activity IC50, Strand Transfer
Method: All compounds were dissolved in DMSO to a final stock concentration of 10 mM and stored at −20 °C. Initial screening for IN inhibitory effect was done at 100 μM and dilutions were made in DMSO. Compounds showing at least 50% inhibition at 100 μM were selected for IC50 determinations. γ-[^32P]-ATP was purchased from Perkin Elmer (Waltham, MA, USA). The expression system for wild-type IN was a generous gift of Dr. Robert Craigie, Laboratory of Molecular Biology, NIDDK, NIH (Bethesda, MD, USA). […]
# output: bare number, implied unit µM

Some solved cases for reference:
| STRUCTURE | TESTED_TARGET | READOUT_VALUE |
| --- | --- | --- |
| O=C(Nc1ccc(O)cc1)C(=S)NN1C(=O)C(=Cc2cccc([N+](=O)[O-])c2O)SC1=S | HIV-1 IN (Human immunodeficiency virus type 1 group M subtype B) | 88 |
| O=C(Nc1ccc(O)cc1)C(=S)NN1C(=O)C(=Cc2cc([N+](=O)[O-])ccc2O)SC1=S | HIV-1 IN (Human immunodeficiency virus type 1 group M subtype B) | 45 |
| C=CCc1cccc(C=C2SC(=S)N(NC(=S)C(=O)Nc3ccc(O)cc3)C2=O)c1O | HIV-1 IN (Human immunodeficiency virus type 1 group M subtype B) | 100 |

Kindly consider the entry below.
Note IC50 for the molecule shown: O=C(Nc1ccc(O)cc1)C(=S)NN1C(=O)C(=Cc2ccc(O)c(C(=O)O)c2)SC1=S
45

----------
biological target: HIV-1 IN (Human immunodeficiency virus type 1 group M subtype B); construct: pre-incubated with purified recombinant IN (at a final concentration of 200 nM); made in house; assay: In vitro IN inhibition assay (3’-processing and strand transfer); assay type: biochemical; conditions: Mn2+ cofactor (7.5 mM MnCl2); read-out: Inhibition of IN catalytic activity IC50, 3’-Processing
REPORTED_ENDPOINT: IC50

| STRUCTURE | TESTED_TARGET | READOUT_VALUE |
| --- | --- | --- |
| COc1cc(C=C2SC(=S)N(NC(=S)C(=O)Nc3cccc(C(F)(F)F)c3)C2=O)cc(OC)c1OC | HIV-1 IN (Human immunodeficiency virus type 1 group M subtype B) | > 100 µM |
| CCOc1cc(-n2cnnn2)c(OCC)cc1NC(=O)C(=S)NN1C(=O)C(=Cc2cc(OC)c(OC)c(OC)c2)SC1=S | HIV-1 IN (Human immunodeficiency virus type 1 group M subtype B) | > 100 µM |
| CCOc1cccc(C=C2SC(=S)N(NC(=S)C(=O)Nc3ccc(O)cc3)C2=O)c1O | HIV-1 IN (Human immunodeficiency virus type 1 group M subtype B) | > 100 µM |

Note IC50 for the compound shown: COc1cc(/C=C2/SC(=S)N(NC(=S)C(=O)Nc3cc(C(F)(F)F)cc(C(F)(F)F)c3)C2=O)cc(OC)c1OC
> 100 µM

Note IC50 for the compound shown: CCN(CC)c1ccc(C=C2SC(=S)N(NC(=S)C(=O)Nc3ccc(O)cc3)C2=O)c(O)c1
> 100 µM

Note IC50 for the compound shown: COc1cc(C=C2SC(=S)N(NC(=S)C(=O)Nc3ccc(-n4cnnn4)c(C)c3)C2=O)cc(OC)c1OC
> 100 µM
